Molecular target: human PXR (Homo sapiens, UniProt O75469)
Sequence (O75469 1-434): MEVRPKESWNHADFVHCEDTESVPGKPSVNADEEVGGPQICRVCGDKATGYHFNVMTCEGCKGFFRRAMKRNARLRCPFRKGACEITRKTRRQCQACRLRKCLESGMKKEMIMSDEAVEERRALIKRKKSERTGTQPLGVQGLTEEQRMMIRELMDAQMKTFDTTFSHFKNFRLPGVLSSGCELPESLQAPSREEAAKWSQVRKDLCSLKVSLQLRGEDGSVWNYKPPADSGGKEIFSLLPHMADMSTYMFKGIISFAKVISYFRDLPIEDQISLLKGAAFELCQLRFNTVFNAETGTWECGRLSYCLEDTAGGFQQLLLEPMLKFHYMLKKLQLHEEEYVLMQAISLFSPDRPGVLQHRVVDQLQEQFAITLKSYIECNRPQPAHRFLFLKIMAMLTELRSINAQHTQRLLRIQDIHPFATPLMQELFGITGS
MEASUREMENT KIND: EC50

{"MOLECULE SMILES": "CC(=O)[C@@]1(O)CC[C@H]2[C@@H]3CC=C4C[C@@H](O)CC[C@]4(C)[C@H]3CC[C@@]21C", "VALUE REPORTED": "11 to 50 µM"}
{"MOLECULE SMILES": "C[C@]12CC[C@H](O)CC1=CC[C@@H]1[C@@H]2CC[C@]2(C)C(=O)CC[C@@H]12", "VALUE REPORTED": "11 to 50 µM"}
